- assay.system: BRD4 Bromodomain 1 (BRD4 BD1) (Homo sapiens, UniProt O60885)
- Construct: 44-168 and BRD4 BD2
- assay.text: AlphaScreen binding assay, BRD4 BD1
- condition.notes: His-tagged BRD4 BD1 50 nM, biotinylated H4 (1-21) K5/8/12/16 tetra-acetylated peptide 50 nM, compounds listed under IC50 range headings
pIC50: −log10 of the molar value.
Record form. Attribute: pIC50. Fill in for each entry.

COC(=O)N1c2ccc(-c3cnn(CCO)c3)c(OCC(=O)N(C)C)c2CC[C@@H]1C = 5.00 to 6.00
CC(=O)N1c2ccc(-c3cnn(C4CC4)c3)c(Oc3nc4ccccc4o3)c2CC[C@@H]1C = 6.00 to 7.00

Hi there! I need pIC50 for each item below, if you can.
1. CC(=O)N1c2ccc(-c3cnn(C4CC4)c3)c(OCS(N)(=O)=O)c2CC[C@@H]1C
2. CCCOc1c(-c2ccc(S(C)(=O)=O)cn2)ccc2c1CC[C@H](C)N2C(C)=O

Output line:
1. ≤ 5.00
2. 5.00 to 6.00

###

- assay.system: BRD4 Bromodomain 2 (BRD4 BD2) (Homo sapiens)
- Construct: 333-460 were cloned, expressed, and purified to homogeneity
- assay.text: AlphaScreen binding assay, BRD4 BD2
- condition.notes: His-tagged BRD4 BD2 100 nM, biotinylated H4 (1-21) K5/8/12/16 tetra-acetylated peptide 100 nM, compounds listed under IC50 range headings
pIC50: −log10 of the molar value.
readout: pIC50

CC(=O)N1c2ccc(-c3cnn(C4CC4)c3)c(O/C=C/Cl)c2CC[C@@H]1C [I-277] = 6.30 to 7.30
CC(=O)N1c2ccc(-c3cnn(C4CCNCC4)c3)c(Oc3ccc(C(N)=O)cn3)c2CC[C@@H]1C [I-523] = 6.30 to 7.30
CC(=O)N1c2ccc(-c3cnn(C4CC4)c3)c(OCC(F)(F)F)c2CC[C@@H]1C [I-35] = 6.30 to 7.30
COC(=O)N1c2ccc(-c3cnn(CCS(C)(=O)=O)c3)c(Oc3cnccn3)c2CC[C@@H]1C [I-558] = 6.30 to 7.30
COC(=O)N1c2ccc(-c3cnn(C4CCNCC4)c3)c(OC3CCC3)c2CC[C@@H]1C [I-447] = > 7.30
COC(=O)N1c2ccc(-c3cnn(C4CS(=O)(=O)C4)c3)c(OC3CCC3)c2CC[C@@H]1C [I-61] = 6.30 to 7.30
CC(=O)N1c2ccc(-c3ccc(S(C)(=O)=O)cc3)c(Oc3ccccc3)c2CCC1C (racemic) [I-111] = > 7.30
COC(=O)N1c2ccc(-c3cnn(CC(C)(C)O)c3)c(OCC3CCOCC3)c2CC[C@@H]1C [I-449] = 6.30 to 7.30

Hi there! I need pIC50 for each item below, if you can.
1. CC(=O)N1c2ccc(-c3cnn(C4CC4)c3)c(OCCN3CCCS3(=O)=O)c2CC[C@@H]1C [I-44]
2. CC(=O)N1c2ccc(-c3cnn(C4CC4)c3)c(OCC3(F)COC3)c2CC[C@@H]1C [I-50]
3. COC(=O)N1c2ccc(-c3cnn(CCS(C)(=O)=O)c3)c(OC3CCC3)c2CC[C@@H]1C [I-444]
4. COC(=O)N1c2ccc(-c3cnn(CCO)c3)c(OCC3CCCC3)c2CC[C@@H]1C [I-461]
5. C[C@H]1CCc2c(ccc(-c3cnn(C4CCNCC4)c3)c2Oc2ccc(C(F)(F)F)cn2)N1C(=O)C1CC1 [I-541]
6. CC(=O)N1c2ccc(-c3cnn(C4CC4)c3)c(OCCC(F)(F)F)c2CC[C@@H]1C [I-41]
7. CC(=O)N1c2ccc(-c3cnn(C4CCNCC4)c3)c(Oc3ccccc3Cl)c2CC[C@@H]1C [I-157]
8. COC(=O)N1c2ccc(-c3cnn(C4CC4)c3)c(Oc3ncc(F)cn3)c2CC[C@@H]1C [I-577]

Output line:
1. > 7.30
2. > 7.30
3. > 7.30
4. > 7.30
5. 6.30 to 7.30
6. 6.30 to 7.30
7. > 7.30
8. 6.30 to 7.30
